- STUDY TARGET: recombinant human delta opioid receptor (Homo sapiens, UniProt P41143)
- Construct: expressed in transfected cells; host or cells: HEK293 (membranes)
- Sequence (P41143 whole entry): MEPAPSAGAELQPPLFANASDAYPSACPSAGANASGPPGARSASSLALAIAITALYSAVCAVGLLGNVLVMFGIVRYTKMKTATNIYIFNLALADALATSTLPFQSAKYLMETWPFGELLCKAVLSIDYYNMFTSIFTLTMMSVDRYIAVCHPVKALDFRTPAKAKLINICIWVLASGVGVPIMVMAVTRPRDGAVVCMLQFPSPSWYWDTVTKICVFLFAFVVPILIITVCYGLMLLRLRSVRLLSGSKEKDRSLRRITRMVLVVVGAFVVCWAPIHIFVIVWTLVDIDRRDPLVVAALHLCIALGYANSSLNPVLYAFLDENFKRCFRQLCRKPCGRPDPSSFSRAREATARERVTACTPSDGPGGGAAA
- PROTOCOL SUMMARY: Opioid receptor radioligand binding assay, delta
- CONDITION INFO: Binding Affinity Delta IC50, membranes of HEK293 cells; radioligand [3H]DADLE 0.5 nM
PROPERTY: IC50 (nM)

In [3]: df
Out[3]:
                                    compound  scale_unit  value_measured
 0  CN(C(=O)C1CC1c1ccc(O)cc1)C1CCC2(O)C3Cc4ccc(O)c5c4C2(CCN3CC2(O)CC2)C1O5 (single isomer, unassigned) [Compound 20a]          nM             161
 1  CN(C(=O)[C@@H]1C[C@H]1c1ccoc1)[C@@H]1CC[C@@]2(O)[C@H]3Cc4ccc(O)c5c4[C@@]2(CCN3CC2CC2)[C@H]1O5          nM              69
 2  CN(C(=O)C1CC1c1ccoc1)C1CCC2(O)C3Cc4ccc(O)c5c4C2(CCN3CC2(O)CC2)C1O5 (single isomer, unassigned) [Compound 16b]          nM              34
 3  CN(C(=O)C1CC1c1ccc(O)cc1)C1CCC2(O)C3Cc4ccc(O)c5c4C2(CCN3CC2(O)CC2)C1O5 (single isomer, unassigned) [Compound 21a]          nM            30.2
 4  CN(C(=O)[C@@H]1C[C@H]1c1ccc(O)cc1)[C@H]1CC[C@@]2(O)[C@H]3Cc4ccc(O)c5c4[C@@]2(CCN3CC2(O)CC2)[C@H]1O5 [Compound 20b]          nM            11.8
 5  CN(C(=O)[C@H]1C[C@@H]1c1ccoc1)[C@H]1CC[C@@]2(O)[C@H]3Cc4ccc(O)c5c4[C@@]2(CCN3CC2CC2)[C@H]1O5          nM            0.66
 6  CN(C(=O)C1CC1c1ccoc1)C1CCC2(O)C3Cc4ccc(O)c5c4C2(CCN3CC2(O)CC2)C1O5 (single isomer, unassigned) [Compound 16a]          nM            5.46
 7  CN(C(=O)C1CC1c1ccsc1)C1CCC2(O)C3Cc4ccc(O)c5c4C2(CCN3CC2(O)CC2)C1O5 (single isomer, unassigned) [Compound 18a]          nM            10.9
 8  CN(C(=O)[C@H]1C[C@@H]1c1ccoc1)[C@@H]1CC[C@@]2(O)[C@H]3Cc4ccc(O)c5c4[C@@]2(CCN3CC2(O)CC2)[C@H]1O5 [Compound 17a]          nM            43.1
 9  CN(C(=O)[C@@H]1C[C@H]1c1ccoc1)[C@@H]1CC[C@@]2(O)[C@H]3Cc4ccc(O)c5c4[C@@]2(CCN3CC2(O)CC2)[C@H]1O5 [Compound 17b]          nM            71.6
10  CN(C(=O)[C@@H]1C[C@H]1c1ccsc1)[C@@H]1CC[C@@]2(O)[C@H]3Cc4ccc(O)c5c4[C@@]2(CCN3CC2(O)CC2)[C@H]1O5 [Compound 19b]          nM             147
11  CN(C(=O)[C@@H]1C[C@H]1c1ccc(O)cc1)[C@@H]1CC[C@@]2(O)[C@H]3Cc4ccc(O)c5c4[C@@]2(CCN3CC2(O)CC2)[C@H]1O5 [Compound 21b]          nM             385
12  CN(C(=O)C1CC1c1ccsc1)C1CCC2(O)C3Cc4ccc(O)c5c4C2(CCN3CC2(O)CC2)C1O5 (single isomer, unassigned) [Compound 18b]          nM             118
13  CN(C(=O)C1CC1c1ccsc1)C1CCC2(O)C3Cc4ccc(O)c5c4C2(CCN3CC2(O)CC2)C1O5 (single isomer, unassigned) [Compound 19a]          nM            16.3
14  CN(C(=O)[C@H]1C[C@@H]1c1ccoc1)[C@@H]1CC[C@@]2(O)[C@H]3Cc4ccc(O)c5c4[C@@]2(CCN3CC2CC2)[C@H]1O5          nM            86.5
15  CN(C(=O)[C@@H]1C[C@H]1c1ccoc1)[C@H]1CC[C@@]2(O)[C@H]3Cc4ccc(O)c5c4[C@@]2(CCN3CC2CC2)[C@H]1O5          nM            0.68

Where do these numbers come from? They come from patent US11214577B2.
